Ref: patent US20110195494A1

- system name: T1, full length mouse DLL4 on overexpressing CHO or HEK293 cells (mouse, UniProt Q9JI71 27-686)
- T1 construct: whole, on cells; also called CHO-mDLL4; mDLL4
- T1 sequence (Q9JI71 27-686): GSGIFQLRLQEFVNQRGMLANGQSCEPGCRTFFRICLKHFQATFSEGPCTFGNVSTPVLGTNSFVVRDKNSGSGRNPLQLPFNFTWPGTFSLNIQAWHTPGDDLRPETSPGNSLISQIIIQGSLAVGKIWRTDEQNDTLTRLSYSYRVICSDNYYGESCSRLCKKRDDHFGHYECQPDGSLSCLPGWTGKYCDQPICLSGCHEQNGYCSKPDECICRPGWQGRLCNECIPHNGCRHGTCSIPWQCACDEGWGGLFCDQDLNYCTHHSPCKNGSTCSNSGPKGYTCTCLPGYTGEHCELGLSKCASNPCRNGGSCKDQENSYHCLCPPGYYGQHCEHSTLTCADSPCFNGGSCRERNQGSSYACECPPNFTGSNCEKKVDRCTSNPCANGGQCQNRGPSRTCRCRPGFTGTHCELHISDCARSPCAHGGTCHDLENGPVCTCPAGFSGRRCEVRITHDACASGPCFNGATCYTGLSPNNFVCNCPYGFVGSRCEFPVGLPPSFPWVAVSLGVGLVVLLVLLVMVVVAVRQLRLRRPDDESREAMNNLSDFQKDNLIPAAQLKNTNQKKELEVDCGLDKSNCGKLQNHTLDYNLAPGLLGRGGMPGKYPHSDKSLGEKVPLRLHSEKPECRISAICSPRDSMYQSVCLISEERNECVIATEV
- assay text: FMAT, hNotch1/Fc on CHO-mDLL4, periplasmic extract
reported metric: FMAT mDLL4 % inhibition
Just the number plus its unit, please.

INSERT INTO assay_data (binder, value_observed) VALUES
  ('DLLBII61F05 (VHH, tested as periplasmic extract; also called DLLBII61F5; not shown: C-terminal c-myc tag and His6 tag) VHH: EVQLVESGGGLVQPGGSLRLSCTASGFTFSSYAMSWVRQAPGKGLEWVSFINKDGSDTGYADSVKGRFTISRDNAKNTMYLQMNSLKPEDTAVYFCETRTSRSPRPRGQGTQVTVSS', '76%');

Would you kindly look at the next entry?
stdin: Need FMAT mDLL4 % inhibition of DLLBII101H09 (VHH, tested as periplasmic extract; also called DLLBII101H9; not shown: C-terminal c-myc tag and His6 tag) VHH: EVQLVESGGGLVQPGGSLRLSCAASGFTLGYYTIVWFRQAPGKERKGVSCISSRDGSRYYADSVKGRFTISRDNAKNTVYLRMNSLKPEDTAVYYCAAGPDCSSYDYWGQGTQVTVSS , thanks.
stdout: 75%
